tested on: Proteus vulg. 1017; assay: MIC, liquid medium test tube series dilution test; format: cell-based, Proteus vulgaris; settings: Proteus vulg. 1017, 24 hours, 37°C
measure-name: MIC (units/ml)
The response must be a number in units/ml with no trailing unit.

Observe how each entry below is paired with its result.
molecule	recorded-measurement
C=CCOC(=O)N(C)C(=O)N[C@@H](C(=O)N[C@@H]1C(=O)N2[C@@H]1SC(C)(C)[C@@H]2C(=O)O)c1ccccc1 [Example 68]	12.5
CN(C(=O)CCCCl)C(=O)N[C@@H](C(=O)N[C@@H]1C(=O)N2[C@@H]1SC(C)(C)[C@@H]2C(=O)O)c1ccccc1 [Example 88]	12.5

Incoming: Query for Proteus vulg. 1017: what MIC does the record show for CC1(C)S[C@@H]2[C@H](NC(=O)[C@H](N)c3ccccc3)C(=O)N2[C@H]1C(=O)O [Ampicillin, D(-)-α-Aminobenzylpenicillin, reference compound] ?
Outgoing: 400

Incoming: Request - read-out MIC | tested on Proteus vulg. 1017 | molecule Cc1ccc(C(NC(=O)N2CCNC2=O)C(=O)N[C@@H]2C(=O)N3[C@@H]2SC(C)(C)[C@@H]3C(=O)O)cc1 (stereo partly drawn) [Example 45]
Outgoing: 100

Incoming: Any idea what MIC came out for Cc1ccc(C(NC(=O)N2CCNC2=O)C(=O)N[C@@H]2C(=O)N3[C@@H]2SC(C)(C)[C@@H]3C(=O)O)cc1 (stereo partly drawn) [Example 46] on Proteus vulg. 1017?
Outgoing: 25

* * *

system: Klebsiella 63; experiment: MIC, liquid medium test tube series dilution test; assay type: cell-based; details: Klebsiella 63, 24 hours, 37°C
For each record, check the reported MIC: if it is below 50 units/ml write 1 (yes), else write 0 (no).

Example cases with answers are listed next.
compound	assigned-class
C=CCN(C(=O)NC(C(=O)N[C@@H]1C(=O)N2[C@@H]1SC(C)(C)[C@@H]2C(=O)O)c1c(Cl)cccc1Cl)C(=O)c1ccccc1 (stereo partly shown) [Example 15]	0 (no)
CC(=O)N(C)C(=O)NC(C(=O)N[C@@H]1C(=O)N2[C@@H]1SC(C)(C)[C@@H]2C(=O)O)c1cccs1 (stereo partly shown) [Example 122]	0 (no)
Cc1ccc(C(NC(=O)N2CCNC2=O)C(=O)N[C@@H]2C(=O)N3[C@@H]2SC(C)(C)[C@@H]3C(=O)O)cc1 (stereo partly shown) [Example 45]	0 (no)
CN(C(=O)N[C@@H](C(=O)N[C@@H]1C(=O)N2[C@@H]1SC(C)(C)[C@@H]2C(=O)O)c1ccccc1)C(=O)c1cccc(Cl)c1 [Example 117]	1 (yes)
CSc1ccc(C(NC(=O)N2CCNC2=O)C(=O)N[C@@H]2C(=O)N3[C@@H]2SC(C)(C)[C@@H]3C(=O)O)cc1 (stereo partly shown) [Example 55]	0 (no)
CCC(=O)N(C(=O)N[C@@H](C(=O)N[C@@H]1C(=O)N2[C@@H]1SC(C)(C)[C@@H]2C(=O)O)c1ccccc1)c1ccccc1 [Example 143]	0 (no)
CN(C)C(=O)N(C)C(=O)NC(C(=O)N[C@@H]1C(=O)N2[C@@H]1SC(C)(C)[C@@H]2C(=O)O)c1cccs1 (stereo partly shown) [Example 23]	0 (no)
CN(C(=O)N[C@@H](C(=O)N[C@@H]1C(=O)N2[C@@H]1SC(C)(C)[C@@H]2C(=O)O)c1ccccc1)C(=O)OC1CCCCC1 [Example 29]	0 (no)

Incoming: Quick check: does CC1(C)S[C@@H]2[C@H](NC(=O)[C@H](NC(=O)N3CCNC3=S)c3ccccc3)C(=O)N2[C@H]1C(=O)O [Example 147 A] have MIC under 50 units/ml?
Outgoing: 0 (no)

Incoming: Find out if reported MIC for CN(C(=O)N[C@@H](C(=O)N[C@@H]1C(=O)N2[C@@H]1SC(C)(C)[C@@H]2C(=O)O)c1ccccc1)C(=O)N1CCCCC1 [Example 123] is less than 50 units/ml
Outgoing: 0 (no)

* * *

tested on: Proteus vulg. 1017; assay: MIC, liquid medium test tube series dilution test; assay type: cell-based, Proteus vulgaris; settings: Proteus vulg. 1017, 24 hours, 37°C
measure-name: MIC

As a guide, the following entries are already answered.
molecule	MIC
CN(C=O)C(=O)N[C@@H](C(=O)N[C@@H]1C(=O)N2[C@@H]1SC(C)(C)[C@@H]2C(=O)O)c1ccccc1 [Example 103]	100-500 units/ml
CN(C(=O)Cc1ccc([N+](=O)[O-])cc1)C(=O)N[C@@H](C(=O)N[C@@H]1C(=O)N2[C@@H]1SC(C)(C)[C@@H]2C(=O)O)c1ccccc1 [Example 132]	4-20 units/ml
CN(C(=O)NC(C(=O)N[C@@H]1C(=O)N2[C@@H]1SC(C)(C)[C@@H]2C(=O)O)c1c(Cl)cccc1Cl)C(=O)c1ccccc1 (stereo partly drawn) [Example 31]	100-500 units/ml
Cc1noc(C)c1C(=O)N(C)C(=O)N[C@@H](C(=O)N[C@@H]1C(=O)N2[C@@H]1SC(C)(C)[C@@H]2C(=O)O)c1ccccc1 [Example 38]	20-100 units/ml
CN(C(=O)C=Cc1cccc([N+](=O)[O-])c1)C(=O)N[C@@H](C(=O)N[C@@H]1C(=O)N2[C@@H]1SC(C)(C)[C@@H]2C(=O)O)c1ccccc1 [Example 131]	0.8-4 units/ml

# context switch: different molecule, same MIC
Incoming: What measured MIC goes with CC1(C)S[C@@H]2[C@H](NC(=O)[C@H](NC(=O)N3CCNC3=O)c3ccccc3)C(=O)N2[C@H]1C(=O)O [Example 53] ?
Outgoing: 6,25 units/ml

* * *

As shown below, each of these compounds has a reported MIC value.
tested on: E. coli 14; experiment: MIC, liquid medium test tube series dilution test; format: cell-based; conditions: E. coli 14, 24 hours, 37°C
Answer with a number only, understood to be in units/ml.

Reference set (2 entries):
compound	MIC, units/ml
CC1(C)S[C@@H]2[C@H](NC(=O)[C@H](NC(=O)NC(=O)c3ccccc3)c3ccccc3)C(=O)N2[C@H]1C(=O)O [reference compound]	6.25
CN(C(=O)CCC(Cl)(Cl)Cl)C(=O)N[C@@H](C(=O)N[C@@H]1C(=O)N2[C@@H]1SC(C)(C)[C@@H]2C(=O)O)c1ccccc1 [Example 89]	1.56

Incoming: What reported MIC corresponds to CCOC(=O)N(C)C(=O)N[C@@H](C(=O)N[C@@H]1C(=O)N2[C@@H]1SC(C)(C)[C@@H]2C(=O)O)c1ccccc1 [Example 61] on E. coli 14?
Outgoing: 3.12

Incoming: Look up MIC with E. coli 14 for this compound: C=CCOC(=O)N(C)C(=O)N[C@@H](C(=O)N[C@@H]1C(=O)N2[C@@H]1SC(C)(C)[C@@H]2C(=O)O)c1ccccc1 [Example 68]
Outgoing: 3.12

Incoming: Find MIC (E. coli 14) for the entry CN(C(=O)N[C@@H](C(=O)N[C@@H]1C(=O)N2[C@@H]1SC(C)(C)[C@@H]2C(=O)O)c1ccccc1)C(=O)OC1CCCCC1 [Example 67]
Outgoing: 1.56

Incoming: Under E. coli 14: MIC value of CN(C(=O)N[C@@H](C(=O)N[C@@H]1C(=O)N2[C@@H]1SC(C)(C)[C@@H]2C(=O)O)c1ccccc1)C(=O)c1ccccc1[N+](=O)[O-] [Example 140] ?
Outgoing: 0.8

Incoming: Field: MIC (E. coli 14). Entry: CC(=O)N(C(=O)N[C@@H](C(=O)N[C@@H]1C(=O)N2[C@@H]1SC(C)(C)[C@@H]2C(=O)O)c1ccccc1)c1ccccc1 [Example 130]
Outgoing: 12.5

Incoming: Please provide the recorded MIC for CN(C(=O)CCCCl)C(=O)N[C@@H](C(=O)N[C@@H]1C(=O)N2[C@@H]1SC(C)(C)[C@@H]2C(=O)O)c1ccccc1 [Example 24] , tested on E. coli 14.
Outgoing: 6.3

Incoming: Quick check: MIC on E. coli 14, item CN(C(=O)N[C@@H](C(=O)N[C@@H]1C(=O)N2[C@@H]1SC(C)(C)[C@@H]2C(=O)O)c1ccccc1)C(=O)N1CCCC1 [Example 124] ?
Outgoing: 3.12

Incoming: Lab request: please report MIC under test system E. coli 14 for CC1(C)S[C@@H]2[C@H](NC(=O)[C@H](NC(=O)N3CCCCC3=O)c3ccccc3)C(=O)N2[C@H]1C(=O)O [Example 134]
Outgoing: 3.1

Incoming: Hi! What's the reported MIC for CN(C(=O)N[C@@H](C(=O)N[C@@H]1C(=O)N2[C@@H]1SC(C)(C)[C@@H]2C(=O)O)c1ccccc1)C(=O)N1CCOCC1 [Example 125] on E. coli 14?
Outgoing: 3.12

Incoming: Which MIC is reported with E. coli 14 for this entry: CN(C(=O)N[C@@H](C(=O)N[C@@H]1C(=O)N2[C@@H]1SC(C)(C)[C@@H]2C(=O)O)c1ccccc1)C(=O)c1ccc(Cl)cc1Cl [Example 142] ?
Outgoing: 0.8

Incoming: Param readout= MIC; system= E. coli 14; entry= C=CCN(C(C)=O)C(=O)N[C@@H](C(=O)N[C@@H]1C(=O)N2[C@@H]1SC(C)(C)[C@@H]2C(=O)O)c1ccccc1 [Example 86] ; returns value.
Outgoing: 12.5

Measured values drawn from patent US3974140A for this set.
